# CYP2D6 Inhibition per record follows
# target system: CYP2D6 (Homo sapiens)
# experiment summary: Cytochrome P450 inhibition assay, CYP2D6
# reported conditions: liver microsomes
API: value field is a number in %; no unit string.

// worked examples, CYP2D6 Inhibition included
1) O=C(c1ccc2nc(-c3cccnc3)oc2c1)N1CCN(c2nc3ccccc3c(=O)[nH]2)CC1 :: -24
2) O=C(c1ccc2nc(-c3cnc(C4CCCCC4)cc3C3CCCCC3)oc2c1)N1CCN(c2nc3ccccc3c(=O)[nH]2)CC1 :: 23
3) O=C(c1ccc2nc(-c3cccnc3C3CCCC3)oc2c1)N1CCN(c2nc3ccccc3c(=O)[nH]2)CC1 :: 41

Input: Would you kindly share the measured CYP2D6 Inhibition for `O=C(c1ccc2nc(-c3cnccc3C3CCCC3)oc2c1)N1CCN(c2nc3ccccc3c(=O)[nH]2)CC1` ?
Output: 45

====

# solubility per record follows
# experiment summary: Solubility in 0.05M PO4-
# Assay type: physicochemical
# reported conditions: 0.05 M phosphate buffer, aqueous buffer

1) O=C(c1ccc2nc(-c3cnccc3C3CCCC3)oc2c1)N1CCN(c2nc3ccccc3c(=O)[nH]2)CC1 :: < 0.05 µg/mL
2) O=C(c1ccc2nc(-c3cccnc3C3CCCC3)oc2c1)N1CCN(c2nc3ccccc3c(=O)[nH]2)CC1 :: < 0.05 µg/mL

Input: Would you kindly share the measured solubility for `O=C(c1ccc2nc(-c3ccc(C4CCCC4)nc3)oc2c1)N1CC2(CC(n3cnc(C4CC4)n3)C2)C1` ?
Output: < 0.05 µg/mL

====

# CYP2D6 Inhibition per record follows
# target system: CYP2D6 (Homo sapiens, UniProt P10635)
# Sequence (P10635 whole entry): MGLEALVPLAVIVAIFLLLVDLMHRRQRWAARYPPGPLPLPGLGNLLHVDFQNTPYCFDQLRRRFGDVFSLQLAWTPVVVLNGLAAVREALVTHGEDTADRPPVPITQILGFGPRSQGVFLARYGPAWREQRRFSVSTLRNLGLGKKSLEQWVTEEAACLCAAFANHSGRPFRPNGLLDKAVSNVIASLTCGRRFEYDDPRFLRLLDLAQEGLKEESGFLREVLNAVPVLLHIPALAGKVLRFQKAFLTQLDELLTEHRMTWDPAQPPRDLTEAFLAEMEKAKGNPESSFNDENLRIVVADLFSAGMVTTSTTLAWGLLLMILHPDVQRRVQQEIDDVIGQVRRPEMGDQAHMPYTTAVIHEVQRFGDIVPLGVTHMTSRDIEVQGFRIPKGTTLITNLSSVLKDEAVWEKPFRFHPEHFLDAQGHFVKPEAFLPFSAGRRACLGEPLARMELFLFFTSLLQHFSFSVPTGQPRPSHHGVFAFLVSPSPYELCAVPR
# experiment summary: Cytochrome P450 inhibition assay, CYP2D6
# reported conditions: liver microsomes
API: value field is a number in %; no unit string.

// worked examples, CYP2D6 Inhibition included
1) O=C(c1ccc2nc(-c3cnccc3C3CCCC3)oc2c1)N1CCN(c2nc3nc(Cl)ccc3o2)CC1 [Compound 23] :: 38
2) O=C(c1ccc2nc(-c3cnccc3C3(C4CCC4)CC3)oc2c1)N1CCN(c2nc3nc(Cl)ccc3o2)CC1 [Compound 27] :: 79

Input: Would you kindly share the measured CYP2D6 Inhibition for O=C(c1ccc2nc(-c3cnccc3C3CCCC3)oc2c1)N1CC(N2CCN(C(=O)c3nccs3)CC2)C1 [Compound 31] ?
Output: 22

Input: Would you kindly share the measured CYP2D6 Inhibition for O=C(c1ccc2nc(-c3ccc(C4CCCC4)nc3)oc2c1)N1CCN(c2nc3ccccc3c(=O)[nH]2)CC1 [Compound 22] ?
Output: 62

Input: Would you kindly share the measured CYP2D6 Inhibition for O=C(c1ccc2nc(-c3ccc(C4CCCC4)nc3)oc2c1)N1CC2(CC(n3cnc(C4CC4)n3)C2)C1 [Compound 30] ?
Output: 3

Input: Would you kindly share the measured CYP2D6 Inhibition for O=C(c1ccc2nc(-c3cnccc3C3CCNCC3)oc2c1)N1CCN(c2nc3nc(Cl)ccc3o2)CC1.O=CO [Compound 25] ?
Output: 34

Input: Would you kindly share the measured CYP2D6 Inhibition for O=C(c1ccc2nc(-c3cccnc3C3CCCC3)oc2c1)N1CCN(c2nc3nc(Cl)ccc3o2)CC1 [Compound 24] ?
Output: 26

====

# Papp at 18 h, 150 µM per record follows
# experiment summary: Parallel Artificial Membrane Permeability (PAMPA)
# reported conditions: PAMPA, pH 6
Please provide the amount together with its unit, number first.

// worked examples, Papp at 18 h, 150 µM included
1. O=C(c1ccc2nc(-c3cccnc3C3CCCC3)oc2c1)N1CCN(c2nc3ccccc3c(=O)[nH]2)CC1 :: 3.7 ×10⁻⁶ cm/s
2. O=C(c1ccc2nc(-c3cccnc3)oc2c1)N1CCN(c2nc3ccccc3c(=O)[nH]2)CC1 :: 4 ×10⁻⁶ cm/s
3. O=C(c1ccc2nc(-c3cnccc3C3CCCC3)oc2c1)N1CC2(CC(n3cnc(C4CC4)n3)C2)C1 :: 5.9 ×10⁻⁶ cm/s
4. O=C(c1ccc2nc(-c3cccnc3C3CCCC3)oc2c1)N1CCN(c2nc3nc(Cl)ccc3o2)CC1 :: 8.5 ×10⁻⁶ cm/s
5. O=C(c1ccc2nc(-c3cnccc3C3CCNCC3)oc2c1)N1CCN(c2nc3nc(Cl)ccc3o2)CC1.O=CO :: 0.02 ×10⁻⁶ cm/s
6. O=C(c1ccc2nc(-c3cnccc3C3CCCC3)oc2c1)N1CCN(c2nc3nc(Cl)ccc3o2)CC1 :: 4 ×10⁻⁶ cm/s
7. O=C(c1ccc2nc(-c3ccc(C4CCCC4)nc3)oc2c1)N1CCN(c2nc3ccccc3c(=O)[nH]2)CC1 :: 2.7 ×10⁻⁶ cm/s
8. O=C(c1ccc2nc(-c3ccc(C4CCCC4)nc3)oc2c1)N1CC2(CC(n3cnc(C4CC4)n3)C2)C1 :: 4.4 ×10⁻⁶ cm/s

# context switch: different compound, same Papp at 18 h, 150 µM
Input: Would you kindly share the measured Papp at 18 h, 150 µM for `O=C(c1ccc2nc(-c3cnccc3C3CCCC3)oc2c1)N1CC(N2CCN(C(=O)c3nccs3)CC2)C1` ?
Output: 12.1 ×10⁻⁶ cm/s
